Test system: K-562 leukemia
Assay: NCI-60 one-dose screen, 48 h
Conditions: 10 µM unless noted
About 83,000 compounds went through this panel and 20% of them were active in at least one assay; those are over-represented in the sample as a whole. The source made the active and inactive calls. Rule for the calls: active = growth percent below 10; inactive = the rest.
Respond only with the outcome that fits, drawn from T for active, F for inactive

// known answers, use as guide
# molecule, class
measured = [
    ("CCCCCCCCCCCCCCCCCC1=NCCN1CCNC(C)=O", "F"),
    ("CCCCCCCCCCCCCCCCNC(=S)N/N=C/c1ccc(O)cc1O", "F"),
    ("CC[C@H](Nc1ncnc2nc[nH]c12)c1nc2cccc(NCc3ccc(C(=O)NO)nc3)c2c(=O)n1-c1ccccc1", "F"),
]

stdin: Identify the outcome logged in this assay for the molecule shown: N=C(N)N=Nc1ccc(NN=C(N)N)cc1
stdout: F

stdin: Identify the outcome logged in this assay for the molecule shown: CCOC(=O)c1csc(-c2ccc(COC(=O)c3ccccc3)o2)n1
stdout: F

stdin: Identify the outcome logged in this assay for the molecule shown: O=C(Nc1ccc(-n2cc(-c3ccncc3)c(-c3ccc(Cl)c(O)c3)n2)cc1)Nc1ccc(Cl)c(C(F)(F)F)c1
stdout: T

stdin: Identify the outcome logged in this assay for the molecule shown: Oc1ccc(N=Nc2ccc(N=Nc3ccccc3)cc2)cc1
stdout: T

* * *

The reader will find reported growth values listed item by item below.
System: CAKI-1 renal
Test: NCI-60 one-dose screen, 48 h (100 = growth as untreated, 0 = no growth, -100 = all killed)
Conditions: 10 µM unless noted
About 83,000 compounds went through this panel and 20% of them were active in at least one assay; those are over-represented in the sample as a whole.
Give your result in % as a bare value.

Examples with answers:
# compound, growth (%)
measured = [
    ("COc1cc2oc(-c3ccc(NC(=O)c4ccccc4)cc3)cc(=O)c2c(OC)c1OC", 96.8),
    ("COc1ccccc1Cn1cc2c(c1)-c1oncc1CC2", 9.72),
    ("CC([C@H]1CCC2C3CCC4C[C@@H](N)CC[C@]4(C)C3CC[C@@]21C)N(C)C (some centres undefined)", 48.8),
    ("Brc1c(-c2ccncc2)nc2n1CCS2", 90.2),
    ("CCc1ccc(C(=Nc2ccc(N(C)C(=O)CN3CCN(C)CC3)cc2)c2c(O)[nH]c3ccc(C(=O)OC)cc23)cc1", -82.9),
    ("O=C(Nc1ccc(-n2cc(-c3ccncc3)c(-c3ccc(Cl)c(O)c3)n2)cc1)c1ccc(Cl)c(C(F)(F)F)c1", -33.5),
]

Entry under test: CC(C)(C)OC(=O)N1C/C(=C\c2ccccc2)C(=O)/C(=C/c2ccccc2)C1 . Its growth was 84.8

Entry under test: COc1cc(N2C(=O)C=CC2=O)ccc1N1C(=O)C=CC1=O . Its growth was 93.7

Entry under test: COC(=O)CC(=O)C(=O)OC . Its growth was 133

* * *

System: HCT-116 colon
Assay: NCI-60 one-dose screen, 48 h (100 = growth as untreated, 0 = no growth, -100 = all killed)
Settings: 10 µM unless noted
Compounds without any hit were thinned out: in the full panel of roughly 83,000, 20% have a hit.
The reader will find reported growth values listed item by item below.
Give your result in % as a bare value.

Examples with answers:
# compound, target or system, growth, %
records = [
    ("Nc1nc2c(c3cnccc13)C(c1cccc(Cl)c1)Cc1cnccc1-2 (stereo not drawn)", "HCT-116 colon", 6.83),
    ("O=C1C(=O)c2ccccc2C(O)=C1CCCc1ccc(C2CCCC2)cc1", "HCT-116 colon", 16.6),
    ("CCOC(=O)c1ccc2n1CCCc1cnc(NC(C)=O)nc1-2", "HCT-116 colon", 107),
    ("CC1(c2ccc(Br)cc2)NC(=O)NC1=O (stereo not drawn)", "HCT-116 colon", 99.5),
    ("CC[n+]1c(C)ccc2cc(C)ccc21", "HCT-116 colon", 97.1),
    ("COc1ccc2sc(-n3nc4nc5n(c(=O)c4c3N)-c3ccccc3Sc3ccccc3-5)nc2c1", "HCT-116 colon", 65.7),
    ("COc1cc2ncnc(Nc3ccc4c(cnn4C(=O)Nc4ccccc4)c3)c2cc1OC", "HCT-116 colon", 95.8),
]

Shifting focus to the compound that follows.
Entry under test: Cc1ccc2c(O)c(O)cc(NC(C)CCCN)c2n1 (stereo not drawn) . Its growth was 34.7

The values you see were collected from PubChem BioAssay (NCI).
